Where do the numbers come from? From patent US20090305995A1.

protocol: high throughput permeability (HT-Permeability, log Pe)
Format: physicochemical
measurement-context: PAMPA, pH 4, pH 4.0; Pe in cm/s; read-out: HT-Permeability logPe pH 4.0 (converted)
quantity-name: Papp (×10⁻⁶ cm/s)
Numbers only; they are read as ×10⁻⁶ cm/s.

What measured Papp goes with CCCCN(C)C(=O)C[C@H](CCCCN)NC(=O)[C@@H](Cc1c[nH]c2ccccc12)NC(=O)C[C@H](Cc1ccccc1)NC(=O)CC ? 1

----------
protocol: logP octanol by pH-metric titration (GLpKa instrument)
Type: physicochemical
measurement-context: read-out: log P/D logP octanol
Method: In order to have a real measure of log P values for highly polar compounds, respective values for compounds 1 to 3 (C-terminal L-β-homothreonine amides) and compounds 7 to 9 (C-terminal 4-amino-5-methyl-dihydro-fuan-2-ones) are measured by employing pH-metric titration technology using a GLpKa instrument (Box et al. 2003). The high polarity of these two mixed α/β^3-tetrapeptides can be controlled by N-terminal introduction of lipophilization tags. […]
Catalogue of logP readings, one per entry.
Give the figure only, with no unit attached.

Example cases with answers are listed next.
1) CCCCCN(C)C(=O)C[C@H](CCCCN)NC(=O)[C@@H](Cc1c[nH]c2ccccc12)N(C)C(=O)C[C@H](Cc1ccccc1)NC(=O)CC
3.1
2) CN(C(=O)C[C@@H](N)Cc1ccccc1)[C@H](Cc1c[nH]c2ccccc12)C(=O)N[C@@H](CCCCN)CC(N)=O
1.5

Attention now turns to another entry.
Tell me the measured logP of CC(=O)N[C@H](CC(=O)N[C@H](Cc1c[nH]c2ccccc12)C(=O)N[C@@H](CCCCN)CC(=O)N[C@H](CC(N)=O)[C@@H](C)O)Cc1ccccc1 , please. 0.4
